measurementProtocol: Displacement of [3H]DTG rom guinea pig brain sigma 2 receptor
Design: species or system Cavia porcellus
pKi: −log10 of the molar value.
Cut-off 6 on pKi, inclusive. At or above means true; below means false.

# check: pKi of COC(=O)C1(c2ccccc2)CC1CN1CCN(c2ccccn2)CC1 (stereo unspecified) is greater than or equal to 6 false

# check: pKi of COC(=O)C1(c2ccc(OC)cc2)CC1CN1CCN(c2ccccn2)CC1 (stereo unspecified) is greater than or equal to 6 false

# check: pKi of COC(=O)C1(c2ccc(C)cc2)CC1CN1CCN(c2ncccn2)CC1 (stereo unspecified) is greater than or equal to 6 false

# check: pKi of COC(=O)C1(c2ccc(OC)cc2)CC1CN1CCC(Cc2ccccc2)CC1 (stereo unspecified) is greater than or equal to 6 true

# check: pKi of COC(=O)C1(c2ccc(C)cc2)CC1CN1CCN(c2ccccn2)CC1 (stereo unspecified) is greater than or equal to 6 false

# check: pKi of COC(=O)C1(c2ccc(Cl)cc2)CC1CN1CCN(c2ccccn2)CC1 (stereo unspecified) is greater than or equal to 6 false

---

measurementProtocol: Displacement of [3H]DTG rom guinea pig brain sigma 2 receptor
Set-up: species or system Cavia porcellus
I'd appreciate it if you could supply pKi values for the items below.
Answer as the number alone; pKi is minus log10 of concentration in mol/L.

Data point: Cc1ccccc1NC(=N)Nc1ccccc1C ; pKi = 7.31

Data point: COC(=O)C1(c2ccc(C)cc2)CC1CN1CCC(O)(c2ccccc2)CC1 (centres undefined) ; pKi = 7.29

Data point: COC(=O)C1(c2ccccc2)CC1CN1CCC(Cc2ccccc2)CC1 (centres undefined) ; pKi = 7.88

Data point: COC(=O)C1(c2ccccc2)CC1CN1CCC(O)(c2ccccc2)CC1 (centres undefined) ; pKi = 7.47

---

pKi: −log10 of the molar value.
property: pKi

Summary: COC(=O)C1(c2ccc(C)cc2)CC1CN1CCC(O)(c2ccccc2)CC1 (stereo unspecified) , UniProt O70528, pKi = < 5.00

---

measurementProtocol: Displacement of [3H]MK-801 from rat cortex NMDA channel
pKi: −log10 of the molar value.
property: pKi

Data point: COC(=O)C1(c2ccc(C)cc2)CC1CN1CCC(O)(c2ccccc2)CC1 (stereo unspecified) ; pKi = < 5.00

---

systemTested: Sodium-dependent serotonin transporter (Rattus norvegicus, UniProt P31652)
Sequence (P31652 whole entry): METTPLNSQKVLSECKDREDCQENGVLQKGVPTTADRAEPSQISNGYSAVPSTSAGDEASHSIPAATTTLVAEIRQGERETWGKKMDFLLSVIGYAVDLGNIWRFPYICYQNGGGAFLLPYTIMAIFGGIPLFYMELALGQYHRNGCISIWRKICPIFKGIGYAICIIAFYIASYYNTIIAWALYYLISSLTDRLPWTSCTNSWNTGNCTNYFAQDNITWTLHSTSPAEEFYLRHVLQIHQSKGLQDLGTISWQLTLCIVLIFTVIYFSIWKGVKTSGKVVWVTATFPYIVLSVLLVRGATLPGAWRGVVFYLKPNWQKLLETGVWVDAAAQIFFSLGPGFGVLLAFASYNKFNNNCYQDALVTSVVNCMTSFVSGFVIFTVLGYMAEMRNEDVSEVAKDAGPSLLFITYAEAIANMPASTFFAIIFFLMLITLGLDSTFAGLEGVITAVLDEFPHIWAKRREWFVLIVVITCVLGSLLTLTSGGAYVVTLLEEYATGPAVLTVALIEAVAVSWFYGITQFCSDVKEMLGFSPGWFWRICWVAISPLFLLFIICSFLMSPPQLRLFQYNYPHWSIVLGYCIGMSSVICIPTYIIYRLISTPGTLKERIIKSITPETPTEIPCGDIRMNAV
property: Ki

Data point: COC(=O)C1(c2ccc(C)cc2)CC1CN1CCC(O)(c2ccccc2)CC1 (stereo unspecified) ; Ki = > 10 µM

---

systemTested: 5-hydroxytryptamine receptor 2A (Rattus norvegicus, UniProt P14842)
Sequence (P14842 whole entry): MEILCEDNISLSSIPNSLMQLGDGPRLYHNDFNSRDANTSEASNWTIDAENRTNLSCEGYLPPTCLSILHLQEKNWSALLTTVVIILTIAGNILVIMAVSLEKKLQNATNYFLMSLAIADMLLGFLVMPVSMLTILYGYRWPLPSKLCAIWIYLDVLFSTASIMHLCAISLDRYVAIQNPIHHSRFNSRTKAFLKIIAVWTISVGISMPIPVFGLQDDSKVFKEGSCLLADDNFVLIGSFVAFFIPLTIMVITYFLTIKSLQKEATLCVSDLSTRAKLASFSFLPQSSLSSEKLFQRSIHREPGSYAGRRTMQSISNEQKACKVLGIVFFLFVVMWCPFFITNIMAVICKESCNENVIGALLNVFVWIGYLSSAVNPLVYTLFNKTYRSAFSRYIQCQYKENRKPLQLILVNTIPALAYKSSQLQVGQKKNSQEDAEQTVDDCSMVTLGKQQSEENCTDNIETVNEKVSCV
property: pKi
Answer as the number alone; pKi is minus log10 of concentration in mol/L.

Summary: COC(=O)C1(c2ccc(C)cc2)CC1CN1CCC(O)(c2ccccc2)CC1 (stereo unspecified) , 5-hydroxytryptamine receptor 2A (Rattus norvegicus, UniProt P14842), pKi = 5.50

---

systemTested: 5-hydroxytryptamine receptor 6 (Rattus norvegicus)
Sequence (P31388 whole entry): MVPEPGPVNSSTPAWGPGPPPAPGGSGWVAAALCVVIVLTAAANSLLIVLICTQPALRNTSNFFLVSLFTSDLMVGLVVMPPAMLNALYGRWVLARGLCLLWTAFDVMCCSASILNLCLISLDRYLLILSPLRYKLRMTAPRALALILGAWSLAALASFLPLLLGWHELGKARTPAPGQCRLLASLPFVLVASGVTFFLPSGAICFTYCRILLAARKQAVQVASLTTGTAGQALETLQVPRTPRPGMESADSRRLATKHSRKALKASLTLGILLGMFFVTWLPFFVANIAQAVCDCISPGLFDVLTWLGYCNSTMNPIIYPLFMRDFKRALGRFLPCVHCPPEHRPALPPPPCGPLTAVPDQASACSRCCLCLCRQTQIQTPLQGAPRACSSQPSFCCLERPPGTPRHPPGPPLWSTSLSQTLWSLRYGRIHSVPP
property: Ki

Data point: COC(=O)C1(c2ccc(C)cc2)CC1CN1CCC(O)(c2ccccc2)CC1 (stereo unspecified) ; Ki = > 10 µM

---

measurementProtocol: Displacement of [3H]DTG rom guinea pig brain sigma 2 receptor
Parameters: species or system Cavia porcellus
I'd appreciate it if you could supply Ki values for the items below.
Respond with the bare value in µM.

Data point: CC[C@H]1C[C@H]2C[C@H]3c4[nH]c5ccc(OC)cc5c4CCN(C2)[C@@H]13 [IBOGAINE] ; Ki = 9.31

Data point: COC(=O)C1(c2ccc(Cl)cc2)CC1CN1CCC(Cc2ccccc2)CC1 (stereo not given) ; Ki = 0.0119

Data point: COC(=O)C1(c2ccc(N)cc2)CC1CN1CCN(c2ncccn2)CC1 (stereo not given) ; Ki = 3.59

Data point: COC(=O)C1(c2ccc([N+](=O)[O-])cc2)CC1CN1CCC(O)(c2ccccc2)CC1 (stereo not given) ; Ki = 0.018

---

systemTested: UniProt:P31390
Sequence (P31390 whole entry): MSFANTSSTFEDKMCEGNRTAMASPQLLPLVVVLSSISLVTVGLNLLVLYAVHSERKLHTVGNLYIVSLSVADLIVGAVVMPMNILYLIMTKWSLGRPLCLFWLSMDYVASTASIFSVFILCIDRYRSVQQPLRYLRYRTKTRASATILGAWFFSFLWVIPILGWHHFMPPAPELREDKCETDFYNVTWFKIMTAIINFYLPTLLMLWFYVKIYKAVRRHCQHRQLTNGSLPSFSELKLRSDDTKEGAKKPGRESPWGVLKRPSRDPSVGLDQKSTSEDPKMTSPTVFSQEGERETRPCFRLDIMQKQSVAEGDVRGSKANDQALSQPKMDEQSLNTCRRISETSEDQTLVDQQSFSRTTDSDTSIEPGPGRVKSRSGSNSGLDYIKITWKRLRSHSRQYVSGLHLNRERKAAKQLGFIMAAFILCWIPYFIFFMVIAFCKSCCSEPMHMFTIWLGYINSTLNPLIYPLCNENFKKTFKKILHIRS
property: pKi
Answer as the number alone; pKi is minus log10 of concentration in mol/L.

Data point: COC(=O)C1(c2ccc(C)cc2)CC1CN1CCC(O)(c2ccccc2)CC1 (stereo unspecified) ; pKi = 5.85

---

systemTested: Sigma non-opioid intracellular receptor 1 (Cavia porcellus, UniProt Q60492)
Sequence (Q60492 whole entry): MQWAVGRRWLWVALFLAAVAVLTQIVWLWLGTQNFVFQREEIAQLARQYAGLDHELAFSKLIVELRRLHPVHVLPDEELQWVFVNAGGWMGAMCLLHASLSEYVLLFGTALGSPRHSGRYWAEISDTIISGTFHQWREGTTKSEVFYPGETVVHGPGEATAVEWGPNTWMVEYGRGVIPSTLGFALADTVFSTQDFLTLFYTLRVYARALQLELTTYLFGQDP
measurementProtocol: Displacement of [3H](+)-pentazocine from guinea pig brain sigma 1 receptor
The label is t for Ki below 3 nM and f for Ki equal to or exceeding 3 nM.

For COC(=O)C1(c2ccc([N+](=O)[O-])cc2)CC1CN1CCN(c2ccccn2)CC1 (stereo not drawn) , is the recorded Ki below the cut-off of 3 nM? f

For COC(=O)C1(c2ccc(OC)cc2)CC1CN1CCN(c2ncccn2)CC1 (stereo not drawn) , is the recorded Ki below the cut-off of 3 nM? f

For COC(=O)C1(c2ccc(C)cc2)CC1CN1CCN(c2ncccn2)CC1 (stereo not drawn) , is the recorded Ki below the cut-off of 3 nM? f

For COC(=O)C1(c2ccc(C)cc2)CC1CN1CCC(O)(c2ccccc2)CC1 (stereo not drawn) , is the recorded Ki below the cut-off of 3 nM? t

For COC(=O)C1(c2ccc(Cl)cc2)CC1CN1CCN(c2ncccn2)CC1 (stereo not drawn) , is the recorded Ki below the cut-off of 3 nM? f

For COC(=O)C1(c2ccc([N+](=O)[O-])cc2)CC1CN1CCC(Cc2ccccc2)CC1 (stereo not drawn) , is the recorded Ki below the cut-off of 3 nM? t

For COC(=O)C1(c2ccc([N+](=O)[O-])cc2)CC1CN1CCN(c2ncccn2)CC1 (stereo not drawn) , is the recorded Ki below the cut-off of 3 nM? f

For COC(=O)C1(c2ccccc2)CC1CN1CCC(Cc2ccccc2)CC1 (stereo not drawn) , is the recorded Ki below the cut-off of 3 nM? t

For CC[C@H]1C[C@@H]2C[C@H]3c4[nH]c5ccc(OC)cc5c4CCN(C2)[C@@H]13 [IBOGAINE] , is the recorded Ki below the cut-off of 3 nM? f

For COC(=O)C1(c2ccccc2)CC1CN1CCC(O)(c2ccccc2)CC1 (stereo not drawn) , is the recorded Ki below the cut-off of 3 nM? f

For COC(=O)C1(c2ccc(Cl)cc2)CC1CN1CCC(O)(c2ccccc2)CC1 (stereo not drawn) , is the recorded Ki below the cut-off of 3 nM? t

For COC(=O)C1(c2ccc(Cl)cc2)CC1CN1CCN(c2ccccn2)CC1 (stereo not drawn) , is the recorded Ki below the cut-off of 3 nM? f

For COC(=O)C1(c2ccc(OC)cc2)CC1CN1CCN(c2ccccn2)CC1 (stereo not drawn) , is the recorded Ki below the cut-off of 3 nM? f

For COC(=O)C1(c2ccccc2)CC1CN1CCN(c2ncccn2)CC1 (stereo not drawn) , is the recorded Ki below the cut-off of 3 nM? f

For COC(=O)C1(c2ccc(C)cc2)CC1CN1CCN(c2ccccn2)CC1 (stereo not drawn) , is the recorded Ki below the cut-off of 3 nM? f

For COC(=O)C1(c2ccc(N)cc2)CC1CN1CCN(c2ncccn2)CC1 (stereo not drawn) , is the recorded Ki below the cut-off of 3 nM? f

For COC(=O)C1(c2ccc(N)cc2)CC1CN1CCN(c2ccccn2)CC1 (stereo not drawn) , is the recorded Ki below the cut-off of 3 nM? f

For COC(=O)C1(c2ccc(C)cc2)CC1CN1CCC(Cc2ccccc2)CC1 (stereo not drawn) , is the recorded Ki below the cut-off of 3 nM? t

For COC(=O)C1(c2ccc(OC)cc2)CC1CN1CCC(O)(c2ccccc2)CC1 (stereo not drawn) , is the recorded Ki below the cut-off of 3 nM? f

For COC(=O)C1(c2ccc(OC)cc2)CC1CN1CCC(Cc2ccccc2)CC1 (stereo not drawn) , is the recorded Ki below the cut-off of 3 nM? t

For COC(=O)C1(c2ccc(Cl)cc2)CC1CN1CCC(Cc2ccccc2)CC1 (stereo not drawn) , is the recorded Ki below the cut-off of 3 nM? t

For COC(=O)C1(c2ccccc2)CC1CN1CCN(c2ccccn2)CC1 (stereo not drawn) , is the recorded Ki below the cut-off of 3 nM? f

For COC(=O)C1(c2ccc([N+](=O)[O-])cc2)CC1CN1CCC(O)(c2ccccc2)CC1 (stereo not drawn) , is the recorded Ki below the cut-off of 3 nM? t

---

measurementProtocol: Displacement of [3H]DTG rom guinea pig brain sigma 2 receptor
Design: species or system Cavia porcellus
property: pKi
Answer as the number alone; pKi is minus log10 of concentration in mol/L.

Data point: COC(=O)C1(c2ccc(OC)cc2)CC1CN1CCC(O)(c2ccccc2)CC1 (stereo not given) ; pKi = 7.28

Data point: COC(=O)C1(c2ccc([N+](=O)[O-])cc2)CC1CN1CCC(Cc2ccccc2)CC1 (stereo not given) ; pKi = 8.05

Data point: COC(=O)C1(c2ccc(C)cc2)CC1CN1CCC(Cc2ccccc2)CC1 (stereo not given) ; pKi = 8.05

Data point: COC(=O)C1(c2ccc(Cl)cc2)CC1CN1CCC(O)(c2ccccc2)CC1 (stereo not given) ; pKi = 7.72

Data point: COC(=O)C1(c2ccc(Cl)cc2)CC1CN1CCN(c2ncccn2)CC1 (stereo not given) ; pKi = 5.57

Data point: CC(C)=CCN1CC[C@]2(C)c3cc(O)ccc3C[C@H]1[C@H]2C [(+)-PENTAZOCINE] ; pKi = 5.81
